# System: KM12 colon
# Assay Name: NCI-60 one-dose screen, 48 h (100 = growth as untreated, 0 = no growth, -100 = all killed)
# Condition Label: 10 µM unless noted
About 83,000 compounds went through this panel and 20% of them were active in at least one assay; those are over-represented in the sample as a whole.
# maps each entry to its growth
Parameter Measured: growth (%)

# Compound, Measurement Target, Unit Abbrev, Value Measured
records = [
    ("CCC1(CC)NC(=O)c2c(c3ccc(Cl)c(Cl)c3n2C)C1C#N (configuration not stated)", "KM12 colon", "%", 99.4),
    ("COC(=O)N[C@H]1CCc2cc(OC)c(OC)c(OC)c2-c2ccc(SC)c(=O)cc21", "KM12 colon", "%", 1.21),
    ("CCOC(=O)C1CC(=O)c2cc(OC)c(OC)cc2C1 (configuration not stated)", "KM12 colon", "%", 103),
    ("Clc1ccc2c(c1)c(-c1ccccc1)nc1nncn12", "KM12 colon", "%", 103),
    ("COc1ccc(-c2nc(SC)nc(N3CCOCC3)c2C#N)cc1", "KM12 colon", "%", 99.9),
    ("c1ccc2c(-c3c4ccsc4cc4[nH]c5ccccc5c34)c[nH]c2c1", "KM12 colon", "%", 14.9),
    ("CS(=O)(=O)c1ccc(-c2cc(-c3nnc(SCC(=O)Nc4ccc(C(=O)/C=C/c5ccc(Cl)cc5)cc4)n3-c3ccccc3)c3ccccc3n2)cc1", "KM12 colon", "%", 96.8),
    ("COc1ccc(C(=O)c2cc3c(N)c(C(=O)Nc4ccc(Cl)cc4)sc3nc2C)cc1", "KM12 colon", "%", 70.2),
    ("CCOc1cc(CNc2ccc(N3CCOCC3)c(C(=O)O)c2)ccc1OC", "KM12 colon", "%", 100),
    ("N#Cc1c(Nc2ccccc2)nn2cc(-c3nc4ccccc4s3)c(N)nc12", "KM12 colon", "%", 88.2),
    ("COc1ccc(NS(=O)(=O)c2ccc(C)cc2)c([N+](=O)[O-])c1", "KM12 colon", "%", 104),
    ("CC(=O)c1c(C)[nH]c(-c2nc3ccc(N4CCN(C)CC4)cc3[nH]2)c1-c1ccccc1", "KM12 colon", "%", 39.7),
    ("COc1ccc(-c2ncc(-c3ccccc3)[nH]2)cc1OC", "KM12 colon", "%", 105),
    ("CCCCCCCCCCCCCCCC(=O)OC[C@@]1(O)C[C@@]23CC[C@@H]4C(C)(C)[C@H](O)CC[C@@]4(C)[C@@H]2CC[C@H]1C3", "KM12 colon", "%", 108),
    ("Nc1nc(SN=Nc2ccc(S(N)(=O)=O)cc2)c2[nH]cnc2n1", "KM12 colon", "%", 5.31),
    ("Clc1cc(Cl)cc(N2N=C(c3cccc(Nc4ccncc4)c3)CC2c2ccc3c(c2)OCO3)c1 (configuration not stated)", "KM12 colon", "%", -51.6),
    ("Cc1nc2sc(C(=O)Nc3cccc(Br)c3)c(N)c2cc1C(=O)c1ccc(C(F)(F)F)cc1", "KM12 colon", "%", 84.8),
    ("FCc1nc2nc(Cl)c(Cl)nc2[nH]1", "KM12 colon", "%", 104),
    ("CN1CCN(CC#CCNC(=O)[C@]23CCC(C)(C)C[C@H]2C2=CC[C@@H]4[C@@]5(C)Cc6c([nH]c7ccccc67)C(C)(C)[C@@H]5CC[C@@]4(C)[C@]2(C)CC3)CC1", "KM12 colon", "%", 52.3),
    ("COc1cc(-c2cc(=O)oc3cc(O)ccc23)c(OC)c2c1OCO2", "KM12 colon", "%", 93.8),
    ("COc1c(Cl)cc(Cl)c2ccc(C=C3C(=O)NC(=S)NC3=O)nc12", "KM12 colon", "%", 112),
    ("COc1cccc(C(Cc2ccccc2)Nc2ccccc2)c1OC (configuration not stated)", "KM12 colon", "%", 99.6),
]

###

# Tested on: SK-MEL-5 melanoma
# Assay Name: NCI-60 one-dose screen, 48 h (100 = growth as untreated, 0 = no growth, -100 = all killed)
# Condition Label: 10 µM unless noted
About 83,000 compounds went through this panel and 20% of them were active in at least one assay; those are over-represented in the sample as a whole.
# maps each entry to its growth
Parameter Measured: growth (%)

# Molecule, Measurement Target, Parameter Measured, Value Measured
records = [
    ("OC1(c2ccc(Cl)c(C(F)(F)F)c2)CCN(CCCC(c2ccc(F)cc2)c2ccc(F)cc2)CC1", "SK-MEL-5 melanoma", "growth", -93.5),
    ("CCCCCCCCOc1ccc(/C=N/Nc2cc(C)nc3ccc(Cl)cc23)cc1", "SK-MEL-5 melanoma", "growth", 96),
    ("NC(=O)c1ccc[n+](CC(=O)N2CCN(c3cc4c(cc3F)c(=O)c(C(=O)O)cn4C3CC3)CC2)c1", "SK-MEL-5 melanoma", "growth", 93.7),
    ("Clc1ccc(C2CC(c3cccc(Nc4ccncc4)c3)=NN2c2ccccc2)cc1 (stereo unspecified)", "SK-MEL-5 melanoma", "growth", 68.6),
    ("CN1CCN(c2ccc(NC3=C(Cl)C(=O)c4ncccc4C3=O)cc2C#N)CC1", "SK-MEL-5 melanoma", "growth", 97.5),
    ("CC1=CC[C@@H]2CC[C@]3(C)[C@H](CC[C@@H]4[C@@]5(C)CCCNC(C)(C)[C@@H]5CC[C@]43C)[C@H]2[C@@H]1C", "SK-MEL-5 melanoma", "growth", 89.9),
    ("COc1ccc(-c2nc(N/N=C/c3ccco3)nc(N3CCOCC3)c2C#N)cc1", "SK-MEL-5 melanoma", "growth", 80.4),
    ("O=C(CN1CCOCC1)Nc1ccc2ncnc(Nc3ccc(Oc4cccc(C(F)(F)F)c4)c(Cl)c3)c2c1", "SK-MEL-5 melanoma", "growth", 58.9),
    ("Cc1ccc(C(=O)Nc2ccccc2C(=O)N/N=C(\\c2ccccc2)c2ccccn2)cc1", "SK-MEL-5 melanoma", "growth", -4.18),
    ("Fc1ccc(C2CC(c3cccc(Nc4ccncc4)c3)=NN2c2ccc(Cl)cc2)cc1 (stereo unspecified)", "SK-MEL-5 melanoma", "growth", 82.8),
    ("Nc1c(Cl)cc([N+](=O)[O-])cc1Br", "SK-MEL-5 melanoma", "growth", 98.9),
]

###

# Test system: OVCAR-3 ovarian
# Assay Name: NCI-60 one-dose screen, 48 h (100 = growth as untreated, 0 = no growth, -100 = all killed)
# Condition Label: 10 µM unless noted
The panel holds about 83,000 compounds, 20% with a hit somewhere; the sample as a whole holds those more often.
# maps each entry to its growth

# Compound, growth (%)
data = [
    ("COc1cccc(-c2nc3occn3c2-c2ccnc(NCCCNS(=O)(=O)c3cccc(F)c3)n2)c1", 88.1),
    ("Fc1cc(C2=NNC(c3ccc[nH]3)C2)ccc1-n1ccc(C(F)(F)F)n1 (stereo not drawn)", 85.6),
    ("CN1CCN(c2ccc3nc(-c4cc(C(C)(C)C)c(O)c(C(C)(C)C)c4)[nH]c3c2)CC1", 74.4),
]

###

# Tested on: IGROV1 ovarian
# Assay Name: NCI-60 one-dose screen, 48 h (100 = growth as untreated, 0 = no growth, -100 = all killed)
# Condition Label: 10 µM unless noted
This is part of a sample that, as a whole, favours compounds with a hit. Of some 83,000 tested, about 20% had one in any assay.

# Molecule, growth, %
measured = [
    ("Cc1cn(-c2cc(C(=O)Nc3cccc(C#Cc4cccc5[nH]nc(N)c45)c3)cc(C(F)(F)F)c2)cn1", 25.5),
    ("Clc1nc(Nc2ccccc2)nc(Nc2ccccc2)n1", 91.9),
    ("COC(=O)C1NC(=S)N(c2ccc(Cl)cc2)C1/C=C/c1ccccc1 (stereo unspecified)", 106),
    ("CCCCCCOc1ccc(/C=N/Nc2cc(C)nc3ccc(Br)cc23)cc1", -85.3),
    ("O=C(N/N=C/c1ccc(O)c(O)c1)c1sc2ccccc2c1Cl", 64.1),
    ("NNC(=O)/C(=C\\c1ccc([N+](=O)[O-])cc1)CC(=O)c1ccc(Cl)c(Cl)c1", 70),
]

###

# System: U251 CNS
# Assay Name: NCI-60 one-dose screen, 48 h (100 = growth as untreated, 0 = no growth, -100 = all killed)
# Condition Label: 10 µM unless noted
Compounds without any hit were thinned out: in the full panel of roughly 83,000, 20% have a hit. Calls of active or inactive are those of the source. How the source made its calls: active means growth percent below 10; inactive means the rest.

# Molecule, Measurement Target, growth
data = [
    ("C[C@]12CCc3nc(Nc4cccc(O)c4)sc3C1=CC[C@@H]1[C@@H]2CC[C@]2(C)/C(=N\\NC(N)=S)CC[C@@H]12", "U251 CNS", "11.9% (inactive)"),
    ("Cc1ccccc1C(c1ccccc1)c1ccccc1C", "U251 CNS", "99.3% (inactive)"),
    ("Clc1ccc(C2CC(c3cccc(Nc4ccncc4)c3)=NN2c2ccc(Cl)cc2)cc1 (configuration not stated)", "U251 CNS", "-49.7% (active)"),
    ("CC(C)[N+](C)(CCOC(COc1ccccc1)COc1ccccc1)C(C)C", "U251 CNS", "83.8% (inactive)"),
    ("C=C1C(=O)O[C@H]2[C@H]1CC/C(COC(=O)CCCc1c[nH]c3ccccc13)=C\\CC[C@@]1(C)O[C@@H]21", "U251 CNS", "56.4% (inactive)"),
    ("CC(=O)c1c[nH]c2ccc(-c3ccnc(Nc4ccc(NC(=O)C5CCCC5)c(CN5CCOCC5)c4)n3)cc12", "U251 CNS", "10.7% (inactive)"),
    ("COc1cc2c(cc1[N+](=O)[O-])-c1ccc([N+](=O)[O-])cc1/C2=N/NC(N)=S", "U251 CNS", "47.1% (inactive)"),
    ("COc1cc(NCC(C)(O)CN(CC(C)C)CC(C)C)c2nc(C)ccc2c1 (configuration not stated)", "U251 CNS", "94.9% (inactive)"),
    ("COc1cc2nc(-c3ccc(-c4nn[nH]n4)cc3)[nH]c(=O)c2cc1OC", "U251 CNS", "105% (inactive)"),
    ("COc1cc(/C=C2\\C(=O)N(Cc3ccc(Cl)cc3)c3ccccc32)cc(OC)c1OC", "U251 CNS", "3.6% (active)"),
    ("COc1ccc(Cl)cc1NC(=O)c1c(NC(=O)C(F)(F)C(F)(F)F)sc2c1CCCCC2", "U251 CNS", "7.27% (active)"),
    ("C[C@H]1[C@H](C)CC[C@]2(CO)CC[C@]3(C)C(=CC[C@@H]4[C@@]5(C)CCCNC(C)(C)[C@@H]5CC[C@]43C)[C@H]12", "U251 CNS", "-83.3% (active)"),
    ("CSc1nnc2c(=O)n(C)c(=O)n(C)c2n1", "U251 CNS", "97.2% (inactive)"),
    ("Clc1ccc(C2CC(c3cccc(Nc4ccncc4)c3)=NN2c2cc(Cl)cc(Cl)c2)cc1 (configuration not stated)", "U251 CNS", "0.417% (active)"),
    ("O=C1/C(=C/c2ccc(O)cc2)COc2ccc(-c3ccccc3)cc21", "U251 CNS", "63.6% (inactive)"),
    ("O=C(CN1CCOCC1)Nc1ccc2ncnc(Nc3ccc(Oc4cccc(C(F)(F)F)c4)c(Cl)c3)c2c1", "U251 CNS", "62.4% (inactive)"),
    ("Cc1c(C2=CCCCC2)c2ccccn2c1C(=O)c1cccc(S(=O)(=O)N2CCOCC2)c1", "U251 CNS", "91.4% (inactive)"),
    ("CC(C)(C)CC(C)(C)Nc1c(-c2ccc(C(F)(F)F)cc2)nc2cnccn12", "U251 CNS", "93% (inactive)"),
    ("Clc1ccc2c(c1)c(-c1ccccc1)nc1nncn12", "U251 CNS", "105% (inactive)"),
    ("CCCCCCCC(=O)Nc1nc2[nH]c(CN3CCN(Cc4cccc(I)c4)CC3)c(CN3CCN(Cc4cccc(I)c4)CC3)c2c(=O)[nH]1", "U251 CNS", "-94.6% (active)"),
    ("CCNNC(=O)[C@@H]1[C@H](c2cc(OC)c(OC)c(OC)c2)c2cc3c(cc2[C@H](O)[C@H]1CO)OCO3", "U251 CNS", "12.7% (inactive)"),
    ("COc1ccc(OC)c(/C=C/[C@H]2O[C@@H](C)[C@H](O)[C@@H]2O)c1", "U251 CNS", "94% (inactive)"),
    ("O=C(N/N=C/c1cccnc1)c1ccccc1Nc1cccc(C(F)(F)F)c1", "U251 CNS", "92.1% (inactive)"),
    ("COc1ccc(-c2nc3sccn3c2/C=C/C(=O)c2cc(OC)c(OC)c(OC)c2)cc1", "U251 CNS", "43.1% (inactive)"),
    ("COc1cc(CCNc2nc3cc(N)cc(N)c3nc2-c2ccccc2)cc(OC)c1", "U251 CNS", "-80.3% (active)"),
    ("CC(=O)[C@@H]1CC[C@]2(C(N)=O)CC[C@]3(C)[C@H](CC[C@@H]4[C@@]5(C)CCC(=O)C(C)(C)[C@@H]5CC[C@]43C)[C@@H]12", "U251 CNS", "103% (inactive)"),
    ("CC(=O)Nc1ccc(S(=O)(=O)NC2CCCCC2)cc1", "U251 CNS", "91% (inactive)"),
]
